- Tested on: A-375
- procedureText: Antiproliferative activity against human A375 cells assessed as cell growth inhibition at 100 uM measured after 48 hrs by MTT assay relative to control
- Assay type: functional
- appliedConditions: A-375, 48 h
Listed here: items and their measured inhibition at 100 µM.
Give the number first and the unit second.

Some entries whose results are on file:
{"molecule": "CC(CCc1ccccc1)NCC(O)c1ccc(O)c(C(N)=O)c1 (configuration not stated)", "inhibition at 100 µM": "38.1%"}
{"molecule": "COC(=O)CCc1ccc(OCC(O)CNC(C)C)cc1 (configuration not stated)", "inhibition at 100 µM": "22.8%"}
{"molecule": "COCCc1ccc(OCC(O)CNC(C)C)cc1 (configuration not stated)", "inhibition at 100 µM": "26.3%"}
{"molecule": "CC(C)NCC(O)COc1ccc(CC(N)=O)cc1 (configuration not stated)", "inhibition at 100 µM": "8.6%"}
{"molecule": "CC(C)(C)NC[C@H](O)COc1nsnc1N1CCOCC1", "inhibition at 100 µM": "22.7%"}

Task: Provide value of inhibition at 100 µM for this record tested with A-375: CC(C)NCC(O)c1ccc(NS(C)(=O)=O)cc1 (configuration not stated)
Result: 15.2%

Task: Enter reported inhibition at 100 µM observed with A-375 for CC(C)NCC(O)COc1ccc(COCCOC(C)C)cc1 (configuration not stated)
Result: 28.3%

Entry source: ChEMBL document CHEMBL4627350
